experiment-notes: Evaluation of dissolution stability (content change on storage in dissolved state)
Type: physicochemical
settings: 1 mg/1 ml dissolved state, 40° C. and RH 75%, day 1
Where no end group is shown, it is not given here. [ ]: non-standard residue; d: D form. Pro(4,4-F2) = O=C(O)[C@@H]1CC(F)(F)CN1; Pro(4,4-Me2) = CC1(C)CN[C@H](C(=O)O)C1; Hyp = O=C(O)[C@@H]1C[C@@H](O)CN1; Aib = CC(C)(N)C(=O)O
property-label: Day 1 content (%)
Respond with the bare value in %.

Ask | Supply Day 1 content (%) value. Item: Hyp-Gly-Gln-Asp-Gly (isopropyl ester) [Example 106]
Reply | 81.47

Ask | Supply Day 1 content (%) value. Item: Hyp-Gly-Gln-Glu-Leu-Leu-Ala ([Hyp]GQELLA) [Example 86]
Reply | 97.40

Ask | Supply Day 1 content (%) value. Item: 4,4-difluoro-Pro-Gly-Gln-Asp-Gly ([Pro(4,4-F2)]GQDG) [Example 43]
Reply | 86.75

Ask | Supply Day 1 content (%) value. Item: Hyp-Gly-Gln-Glu-Aib-Leu-Ala ([Hyp]GQE[Aib]LA) [Example 92]
Reply | 97.05

Ask | Supply Day 1 content (%) value. Item: Hyp-Gly-Gln-Asu-Gly-Leu-Ala (isopropyl ester) [Example 113]
Reply | 92.40

Ask | Supply Day 1 content (%) value. Item: 4,4-dimethyl Pro-Gly-Gln-Asp-Gly ([Pro(4,4-Me2)]GQDG) [Example 55]
Reply | 94.34

###

experiment-notes: Evaluation of dissolution stability (content change on storage in dissolved state)
Assay type: physicochemical
settings: 1 mg/1 ml dissolved state, 40° C. and RH 75%, day 1
Primed or numbered codes have the meaning given here. Where no end group is shown, it is not given here. [ ]: non-standard residue; d: D form. Pro(cis-4-F) = O=C(O)[C@@H]1C[C@H](F)CN1; Pro(4,4-Me2) = CC1(C)CN[C@H](C(=O)O)C1; Asu′ = aspartimide (aminosuccinimide); Hyp = O=C(O)[C@@H]1C[C@@H](O)CN1; Aib = CC(C)(N)C(=O)O
Measured Day 1 content (%) values are reported for all entries that follow.
Respond with the bare value in %.

A selection of reference data follows.
substance	Day 1 content (%)
4,4-dimethyl Pro-Gly-Gln-Asp-Gly-Leu-Ala ([Pro(4,4-Me2)]GQDGLA) [Example 57]	75.20
Hyp-Gly-Gln-Aib-Gly-Leu ([Hyp]GQ[Aib]GL) [Example 84]	97.91
cis-4F-Pro-Gly-Gln-Asp-Gly ([Pro(cis-4-F)]GQDG) [Example 41]	93.20
Hyp-Gly-Gln-Asu-Gly-Leu-Ala-Gly ([Hyp]GQ[Asu′]GLAG) [Example 103]	97.20
Hyp-Gly-Gln-Asp (isopropyl ester)-Gly-Leu-Ala (isopropyl ester) [Example 114]	75.01

Ask | Supply Day 1 content (%) value. Item: DGLAGP [Example 31]
Reply | 85.08

Ask | Supply Day 1 content (%) value. Item: Hyp-Gly-Gln-Leu-Leu-Leu-Ala ([Hyp]GQLLLA) [Example 96]
Reply | 97.14

Ask | Supply Day 1 content (%) value. Item: Hyp-Gly-Gln-Asn-Gly-Leu-Ala ([Hyp]GQNGLA) [Example 79]
Reply | 97.87
